This collection of values is drawn from patent US12195427B2.

For each of the compounds below, state its Pharmacophore torsion angle a(O1, O2, N2, CA4).
target: MASP-2 CCP2-SP (Homo sapiens (Human), UniProt O00187); experiment: MASP-2 co-crystallization, X-ray crystallography and structure analysis (H-bonds, van der Waals contacts); conditions: Table A7-2; between pharmacophore elements of the bound compound
Sequence (O00187 445-686): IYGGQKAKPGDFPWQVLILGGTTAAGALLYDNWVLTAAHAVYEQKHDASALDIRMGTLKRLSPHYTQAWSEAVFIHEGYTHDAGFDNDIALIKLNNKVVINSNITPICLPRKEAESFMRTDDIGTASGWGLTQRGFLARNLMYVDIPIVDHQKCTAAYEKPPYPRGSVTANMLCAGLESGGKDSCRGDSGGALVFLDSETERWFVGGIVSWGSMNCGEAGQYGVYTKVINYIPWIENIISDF
Sequence (O00187 364-432 partner): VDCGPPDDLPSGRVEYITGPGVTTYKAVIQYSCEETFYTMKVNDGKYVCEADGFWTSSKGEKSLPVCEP
Structures can show the parent of a compound that is named as a salt.

## Input Look up and report measured Pharmacophore torsion angle a(O1, O2, N2, CA4) for this entry: Cc1nc(N)ccc1CNC(=O)C(C)NC(=O)C1CC(c2cccc3ccccc23)CCN1.Cl.Cl (stereo not shown) [1297_1]
## Output 110.58

## Input Look up and report measured Pharmacophore torsion angle a(O1, O2, N2, CA4) for this entry: Cc1nc(N)ccc1CNC(=O)[C@H](C)NC(=O)[C@H]1C[C@@H](c2cccc3ccccc23)CCN1.Cl.Cl [1297_5]
## Output 101.00

## Input Look up and report measured Pharmacophore torsion angle a(O1, O2, N2, CA4) for this entry: "Cc1nc(N)ccc1CNC(=O)[C@H](C)NC(=O)[C@H]1C[C@H](Cc2ccc3ccccc3c2)CN1"
## Output 116.54

## Input Look up and report measured Pharmacophore torsion angle a(O1, O2, N2, CA4) for this entry: Cc1nc(N)ccc1CNC(=O)[C@H](C)NC(=O)[C@H]1C[C@H](Cc2cc(-c3ccccc3)cs2)CN1 [compound 1399, Dihydrochloride]
## Output 113.10
